experimental_target: HarmOR6 (Helicoverpa armigera, UniProt R4JSE3)
Construct: full-length ORF; with HarmOrco (HarmOR2)
Sequence (R4JSE3 1-425): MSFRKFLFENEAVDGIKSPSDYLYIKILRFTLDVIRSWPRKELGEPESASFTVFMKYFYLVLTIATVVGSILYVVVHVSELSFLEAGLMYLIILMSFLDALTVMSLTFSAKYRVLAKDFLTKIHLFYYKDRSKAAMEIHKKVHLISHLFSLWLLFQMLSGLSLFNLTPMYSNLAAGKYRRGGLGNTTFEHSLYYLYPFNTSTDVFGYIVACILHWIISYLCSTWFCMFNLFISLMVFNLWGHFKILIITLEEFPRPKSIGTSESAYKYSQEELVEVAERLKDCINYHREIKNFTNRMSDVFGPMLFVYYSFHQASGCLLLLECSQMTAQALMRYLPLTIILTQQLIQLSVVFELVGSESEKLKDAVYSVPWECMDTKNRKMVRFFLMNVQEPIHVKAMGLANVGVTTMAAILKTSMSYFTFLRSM
Sequence (A0A075TD45 1-473 partner): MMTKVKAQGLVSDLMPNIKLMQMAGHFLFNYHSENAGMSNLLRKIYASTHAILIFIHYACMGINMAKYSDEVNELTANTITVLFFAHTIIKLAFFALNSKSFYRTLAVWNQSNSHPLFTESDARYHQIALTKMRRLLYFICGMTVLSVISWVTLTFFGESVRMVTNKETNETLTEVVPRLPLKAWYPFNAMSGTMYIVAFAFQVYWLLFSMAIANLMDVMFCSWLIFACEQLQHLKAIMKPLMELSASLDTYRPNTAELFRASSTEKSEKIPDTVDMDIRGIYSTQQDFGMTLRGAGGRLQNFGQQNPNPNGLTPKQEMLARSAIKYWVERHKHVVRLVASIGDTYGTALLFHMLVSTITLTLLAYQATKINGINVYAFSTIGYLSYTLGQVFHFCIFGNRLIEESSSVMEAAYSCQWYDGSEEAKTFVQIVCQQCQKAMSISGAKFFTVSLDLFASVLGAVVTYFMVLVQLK
measurement_notes: two-electrode voltage clamp in Xenopus oocytes, dose-response
The entries below are paired with their reported EC50.
Express it in µM; write the number only.

So the reported EC50 for CCCC/C=C\CCCCCCCC=O [Z9-14:Ald, (Z)-9-tetradecenal] , on HarmOR6 (Helicoverpa armigera, UniProt R4JSE3), turned out to be 4.34

So the reported EC50 for CCCCCC/C=C\CCCCCCCC=O [Z9-16:Ald, (Z)-9-hexadecenal] , on HarmOR6 (Helicoverpa armigera, UniProt R4JSE3), turned out to be 3.53

Ref: paper PMC3626661
